Data provenance is patent US20250353873A1.

# Test system: human APOE RNA
# Procedure Details: Activity in APOE C57BL/6NTac-Apoeem7250 knock-in mice, single ICV bolus, 16 weeks (Example 12)
# Assay type: in vivo
# Condition Description: cortex; single ICV bolus 300 μg; 16 weeks post treatment; normalized to mouse Ppia
Strand notation (5' to 3'): a small letter for the sugar, then the base; units joined by * are phosphorothioate-linked, units joined directly phosphodiester-linked; [ ] holds rarer units or linkages, { } end groups; capitals alone tell only the bases. [ms] = mesyl phosphoramidate linkage; e = 2'-O-(2-methoxyethyl) (MOE); [5mC] = 5-methylcytosine; d = 2'-deoxy (DNA)
Parameter: APOE RNA (% control) Cortex
Give the number; % control is assumed, so skip it.

Kindly note the recorded APOE RNA (% control) Cortex for 1693143: 6-10-4 MOE gapmer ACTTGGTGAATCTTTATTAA, linkages ssossszzzssssszsss (as printed) (sugars from the 5' end e6 d10 e4, all C 5-methyl, backbone not given here; further chemistry not fully specified) [compound 1693143] , which is 76

Kindly note the recorded APOE RNA (% control) Cortex for 1693045: 5-10-5 MOE gapmer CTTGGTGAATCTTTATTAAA, linkages ssssozzzzssssssssss (antisense e[5mC]*eT*eT*eG*eGdT[ms]dG[ms]dA[ms]dA[ms]dT*d[5mC]*dT*dT*dT*dA*eT*eT*eA*eA*eA) [compound 1693045] , which is 93

Kindly note the recorded APOE RNA (% control) Cortex for 1693051: 5-10-5 MOE gapmer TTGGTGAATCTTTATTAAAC, linkages ssosszzzsssssssosss (antisense eT*eT*eGeG*eT*dG[ms]dA[ms]dA[ms]dT*d[5mC]*dT*dT*dT*dA*dT*eTeA*eA*eA*e[5mC]) [compound 1693051] , which is 97

Kindly note the recorded APOE RNA (% control) Cortex for 1693074: 5-10-5 MOE gapmer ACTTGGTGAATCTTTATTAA, linkages ssosssszzzzzsssssss (eA*e[5mC]*eTeT*eG*dG*dT*dG[ms]dA[ms]dA[ms]dT[ms]d[5mC][ms]dT*dT*dT*eA*eT*eT*eA*eA) [compound 1693074] , which is 84
